- Target under test: NiVB-G (Nipah virus, strain Bangladesh)
API: label(entry) gives criterion met if the entry's EC50 is strictly smaller than 0.5 nM; on equality or larger values it gives criterion not met.

Binder	Classification
HENV-141 (antibody, V domains shown) VH: QVQLVQSGAEVKKPGSSVKVSCKASGGTFSSYTISWVRQAPGQGLEWMGRIIPISGITNYAQKFQGRVTITADKSTSTAYMELSSLRSEDTAVYYCAKDCYYGSGTYYGCRADYQWHHTMDVWGQGTTVTVSS VL: DIQMTQSPSSLSASVGDRVTITCRASQGIRNDLGWFQQKPGKAPKRLIYAASSLQSGVPSRFSGSGSGTEFTLTISSLQPEDFATYFCLQHNTYPLTFGQGTKVEIK	criterion not met
HENV-58 (antibody, V domains shown) VH: QVQLVQSGAEVKKPGSSVKVSCKASGGTFSNYVISWVRQAPGQGFEWMGRIIPMIGISNYAQKFQDRVTITADKDESTTTAYMELRGLRSEDTAMYYCASSTVTEVGAWGQGTLVTVSS VL: AIQLTQSPSSLSASIGDRVTITCRASQGISSALAWFQQKPGKPPILLIYDASSLESGVPARFSGSGSGTDFTLTISSLQPEDFATYYCQQFYNHPLTFGPGTKVDIK	criterion not met
HENV-184 (antibody, V domains shown) VH: QVQLVQSGTEVKNPGSSVKVSCKASGGTFSGFGISWVRQAPGQGLEWMGGVLPIFGSPNYAQKFQGRVTITADESTGTAYMDLSSLRSDDTAMYYCARDQSGGFFDYWGQGTLVIVSS VL: EIVLTQSPATLSLSPGERATLSCRASQSVSSNLAWYQQKPGQAPRLLIYDASDRATGVPARFSGSGSGTDFTLTISSLEPEDFALYYCQQRYNWRVTFGQGTRLEIK	criterion not met
HENV-122 (antibody, V domains shown) VH: EVQLLESGGGLVQPGGSLRLSCAASGFTFSTNAMSWVRQAPGKGLEWVSTVSGSGAHPNYGDSVKGRFTISRVNSKNTLFLQMSSLRAEDTAIYYCARVSTVTVGGHIPRGYYFDYWGQGTLVTVSS VL: EILLTQSPGTLSLSPGERATLSCRASQSASSSYLAWYQQKPGQAPRLLIYGASTRATGIPDRFSGSGSGTEFTLTISRLESEDFAVYYCHHYGSSRTFGQGTKVEVK	criterion met
